# Tested on: ACHN renal
# Method Summary: NCI tumour cell line growth inhibition, 48 h
compounds and their reported TGI
Measure: TGI

C=CCc1cccc2cc(C(=O)NCc3ccccc3)c(=N)oc12: > 100 µM
O=C1C2SC34c5c2c2ccccc2n5CCC3CCCN14 (stereo unspecified): > 100 µM
Cc1c(O)ccc2c(O)c(NC(=O)c3ccc4c(c3)CCC(C)(C)O4)c(=O)oc12: > 100 µM
COc1cccc(CCNC(=O)Cc2ccccc2CCO)c1: > 100 µM
Nc1ccc2c(c1)C(=O)N1CCC[C@H]1C(=O)N2: > 100 µM
CCOC(=O)c1ccc(NC(=O)Oc2ccc3c(C)cc(=O)oc3c2)cc1: > 100 µM
COC(=O)C1=C(C(=O)OC)N(c2ccc(OC)cc2[N+](=O)[O-])C(c2ccc(C)cc2)=CC1c1ccc(OC)cc1OC (stereo unspecified): > 100 µM
CCO/C(O)=C(/C(=N)N1CCOCC1)C(=O)Nc1ccc(F)cc1: > 100 µM
CCOC(=O)C(C#N)C1=CC(=O)C(=O)c2ccc(OC)cc21 (stereo unspecified): 30.9 µM
S=C(Nc1ccc(Cl)cc1)Nc1ccc(-c2nc3ccccc3s2)cc1: 45.4 µM
O=c1oc2ccc3ccccc3c2cc1-c1nc2ccccc2s1: > 100 µM

###

Some compounds, each annotated with its measured GI50.
# Tested on: ACHN renal
# Method Summary: NCI tumour cell line growth inhibition, 48 h
Measure: GI50

COc1ccc(Sc2[nH]c(C(C)=O)c3ccccc23)cc1: 16.5 µM
CCOC(=O)C1=CN(C)C=C(C(=O)OCC)C1c1cc(Br)c(OCC)c(OC)c1: > 100 µM
COc1cccc(F)c1C(=O)c1cnc(NC2CCN(S(C)(=O)=O)CC2)nc1N: 2.16 µM
COc1ccc(OC)c2c1[nH]c(=O)c1c3ccccc3cn21: 1.11 µM
COC(=O)COc1ccccc1/C=C1\N=C(c2ccccc2)N(c2cc(C(F)(F)F)ccc2Cl)C1=O: 57 µM

###

# Tested on: UACC-257 melanoma
# Method Summary: NCI tumour cell line growth inhibition, 48 h
Measure: GI50

CC1(C)N=C(N)N=C(N)N1c1ccc(CCCCc2ccc(Cl)cc2S(=O)(=O)F)c(Cl)c1: 0.808 µM
COc1ccc(Sc2[nH]c(C(C)=O)c3ccccc23)cc1: 15.3 µM
O=C(O)COc1ccc2c(=O)c3sc4c(=O)c5ccccc5c(=O)c4c3c(=O)c2c1: 16.2 µM
Cc1cc(Nc2ccc(NC(=O)c3ccc(Nc4ccnc5ccccc45)cc3)cc2)nc(N)n1: 21.8 µM
CCN1CCN(C(=O)[C@@]2(C)CC[C@]3(C)CC[C@]4(C)C(=CC(=O)[C@@H]5[C@@]6(C)CC[C@H](OC7C[C@@H](O)[C@@H](O)C(C)O7)C(C)(C)[C@@H]6CC[C@]54C)[C@@H]3C2)CC1 (some centres not stated): 1.65 µM
COc1ccccc1/C=N\N/C(N)=N\N=C\c1ccccc1OC: 4.29 µM
C#CCOc1cccc(-c2ncc3cc(NC(=O)CCl)ccc3n2)c1: 2.02 µM
CSC1=Nc2c(c(C)c(C)n2COC(CO)CO)C2=NC(=O)C(C)N12 (configuration not stated): > 100 µM
Cn1c(I)c(C#CCO[Si](C)(C)C(C)(C)C)c(=O)[nH]c1=O: 12.9 µM
c1ccc(-c2nnc(-c3ccccn3)s2)nc1: > 100 µM
NC(=O)/C=C/C(=O)c1c(Cl)cccc1Cl: 1.38 µM
CN(C)CCNC(=O)c1cccc2ccc(-c3ccc(O)cc3)nc12: 1.06 µM
CC1=C(C(=O)Nc2ccc(F)c(Cl)c2)C(c2ccccc2O)NC(=S)N1 (configuration not stated): 19.8 µM
COc1cccc(CC(C)=C(c2ccc(OCCN(C)C)cc2)c2ccc(OCCN(C)C)cc2)c1: 4.06 µM
COc1ccc(OC)c2c1[nH]c(=O)c1c3ccccc3cn21: 2 µM
COc1ccc(/C=C\[N+](=O)[O-])cc1OC: 0.919 µM
CO/N=C(/C)c1cccc(Nc2cc(-n3nnc4ccccc43)nc3ccccc23)c1: 87.5 µM

###

# Tested on: MDA-MB-231 breast
# Method Summary: NCI tumour cell line growth inhibition, 48 h
# reported TGI; entries follow
Measure: TGI

C=CCc1cccc2cc(C(=O)NCc3ccccc3)c(=N)oc12: > 100 µM
CC(=O)Nc1ccc(S(=O)(=O)N2C(=O)CCC2C(=O)Nc2ccc(Br)cc2)cc1 (stereo unspecified): 6.94 µM
COc1cc(C2C3C=CC=C4CC=CC(=C43)C3CCC(=O)N32)cc(OC)c1OC (stereo unspecified): > 100 µM
CC(C)(C)OC(=O)N(CCCCN(CCCNC(=O)C(F)(F)F)C(=O)OC(C)(C)C)CCCNC(=O)C(F)(F)F: > 100 µM
COc1cc(OCc2cccc(-c3ccc(C(O)c4nccs4)cc3)c2C)cc(OC)c1C=O (stereo unspecified): 7.32 µM
O=c1oc2ccccc2cc1-c1cc2ccccn2c1: > 100 µM
O=C(O)CCCc1nc2c(n1Cc1ccccc1)C(=O)c1ccccc1C2=O: > 100 µM
CC(=O)Nc1sc(Br)cc1S(=O)(=O)c1ccc(Cl)cc1: > 100 µM
NC(N)=NS(=O)(=O)c1ccc(NNc2c3ccccc3nc3c(C(=O)Nc4ccc(S(=O)(=O)Nc5ncccn5)cc4)cccc23)cc1: > 100 µM
CCOC1(OCC)C2C=CC1C(COS(=O)(=O)c1ccc(C)cc1)C2COS(=O)(=O)c1ccc(C)cc1 (stereo unspecified): 69.5 µM
O=C(/C=C/c1ccccc1)Oc1cccc(O)c1: > 100 µM
CN=C(n1ccnc1)n1ccnc1: > 100 µM
CCn1c(-c2ccccc2)cs/c1=N\C(P(=O)(O)O)P(=O)(O)O: > 100 µM
COc1cc(/C=C/C(=O)c2ccc(O)c(OC)c2)ccc1O: 79.4 µM
CC(=O)OC(OC(C)=O)c1ccc2ccc3cccc4ccc1c2c34: 84.1 µM
C=C1C(=O)OC2CC(C)C(C(CC(C)=O)OC(C)=O)=CCC12 (stereo unspecified): 27.2 µM
CC1=C(C)CC2C(=O)N(c3cc(C(C)(C)C)ccc3C(C)(C)C)C(=O)C2C1 (stereo unspecified): > 100 µM
CC1(C)[C@@H](Cn2ccc(=O)[nH]c2=O)CC[C@@]1(C)CO: > 100 µM
COc1cccc(C2c3cc4c(cc3OC(N3CCCCC3)C2C)OCO4)c1O (stereo unspecified): > 56.7 µM
COC(=O)C1=C(OC(=O)/C(=C/c2ccc(Cl)cc2)c2ccc(Cl)cc2)C(C(=O)OC)[C@@]2(O)[C@@H](C(=O)OC)[C@H](C)C[C@@H]1[C@@H]2C(=O)OC (stereo partly specified): > 100 µM
CO/N=C(\C)c1ccc(Nc2nc3ccccc3c3occc23)cc1: 25.9 µM

###

We begin with a simple list: items and their reported TGI.
# Test system: NCI/ADR-RES ovarian
# Method Summary: NCI tumour cell line growth inhibition, 48 h
Measure: TGI

O=C1C2SC34c5c2c2ccccc2n5CCC3CCCN14 (centres undefined): > 100 µM
CC(=O)N=C1N(/C=C2\C(=O)Oc3ccccc3C2=O)C(=O)/C(=C/c2cccc(Cl)c2Cl)N1C: 62 µM
CCN(CC)CCC(CNc1ccnc2cc(Cl)ccc12)c1ccc(Cl)cc1 (centres undefined): 8.65 µM
O=C(O)CCCc1nc2c(n1Cc1ccccc1)C(=O)c1ccccc1C2=O: > 100 µM
c1ccc(-c2nnc(-c3ccccn3)s2)nc1: > 100 µM
C[C@H]1[C@H]2[C@H]3CC[C@@H]4[C@@]5(C)CC[C@H](O)C(C)(C)[C@@H]5CC[C@@]4(C)[C@]3(C)C[C@H](O)[C@@]2(C)C[C@H]2O[C@]21C: 51.8 µM
Nc1ccc2c(c1)C(=O)N1CCC[C@H]1C(=O)N2: > 100 µM
O=C(O)COc1ccc2c(=O)c3sc4c(=O)c5ccccc5c(=O)c4c3c(=O)c2c1: > 100 µM
COc1cc(Nc2ncccc2C(=O)NCc2cn(Cc3cccc(Oc4ccccc4)c3)nn2)cc(OC)c1: > 100 µM

###

# Test system: UO-31 renal
# Method Summary: NCI tumour cell line growth inhibition, 48 h; in the data active means GI50 below about 0.43 µM; inactive means the rest
Possible outcomes: 1.0 = active, 0.0 = inactive

CN(C)CCNC(=O)c1cccc2ccc(-c3ccc(O)cc3)nc12: 0.0
N#Cc1c(NC(=O)NCc2ccccc2)sc2c1CCCCC2: 0.0
c1ccc(-c2nnc(-c3ccccn3)s2)nc1: 0.0
CC1(C)N=C(N)N=C(N)N1c1ccc(CCCCc2ccc(Cl)cc2S(=O)(=O)F)c(Cl)c1: 0.0
CC/C=C\C[C@H](O)C/C=C1/C(=O)C(Cl)=C[C@@H]1C/C=C\CCCC(=O)OC: 1.0
COc1ccc(Sc2[nH]c(C(C)=O)c3ccccc23)cc1: 0.0
Cc1cc(Cl)cc(OCCn2cc(F)cn2)c1-c1nc(N)nc2c1CN(C(=O)NCC(C)(F)F)C2: 0.0
O=C(Nc1ccc(Br)cc1F)c1cc(F)ccc1O: 1.0
CSC1=Nc2c(c(C)c(C)n2COC(CO)CO)C2=NC(=O)C(C)N12 (stereo not given): 0.0
Nc1ccc([N+](=O)[O-])cc1N=C/C=C/c1ccccc1: 0.0

Values were extracted from PubChem BioAssay (NCI).
